B1: tRNA (parent)
chain: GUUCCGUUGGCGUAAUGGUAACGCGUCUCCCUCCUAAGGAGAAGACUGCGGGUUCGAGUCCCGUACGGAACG

Variants of: B1
Experiment: yeast fitness relative to wild type (ratio to wild type); higher = fitter; tRNA-Arg(CCU), competitive growth, 37 C, YPD
This sample holds only a part of the variants without activity.
readoutType: yeast fitness
Lab note: jot down the number only; don't add units.

These recorded examples may help you get a feel for the data.
U7C C27G ... 0.696
U35G G44A ... 0.509
U19A A20C A21G C30G C55G ... 0.573
U3G C33U A42G C61A ... 0.538
A42U C62A A70C ... 0.581
C22U C30U C33U A45C ... 0.548
C31U G67U A69G ... 0.747
C22G C27U A43G ... 0.623

I would be grateful if you could share the reported yeast fitness for U2C C5A .
0.845

# query: yeast fitness of entry C4G A57G C61U
0.629

Which yeast fitness is listed for U13C A43U C66U ?
0.705

meta.source: the RNAGym collection of RNA variant scans (doi:10.1126/science.aae0568)
